Target: T1, ZFP SBS#912 (synthetic)
T1 chain: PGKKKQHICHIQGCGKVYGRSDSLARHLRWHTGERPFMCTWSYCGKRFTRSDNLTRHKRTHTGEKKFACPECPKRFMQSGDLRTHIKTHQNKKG
Experiment: EMSA
Conditions: tags: MBP fusion
quantity-measured: pKd
Quick note: pKd means taking -log10 of the concentration in moles per liter.

For TCAGAGGTG (dsDNA) DNA 1: TCAGAGGTG DNA 2: CACCTCTGA , what is its reported pKd?
9.87
